experimental_system: T1, human MHC class II DR protein (DRA*0101/DRB1*0401), purified from PRIESS cells (human, UniProt P01903 26-254; P01911 30-266, limits assumed)
T1 construct: mature; also called HLA-DR protein; MHCII
T1 MHC II alpha: not shown
T1 MHC II beta: not shown
protocol_details: SPR (BIAcore), MHCII on CM5 chip
pKd: −log10 of the molar value.

- binder: "MS-GPC-8-6-47 Fab (Fab, V domains shown, Fab: VH-CH1 with FLAG tag and STREP tag II, VL-CL; VH residue 1 is Q in Fab) VH: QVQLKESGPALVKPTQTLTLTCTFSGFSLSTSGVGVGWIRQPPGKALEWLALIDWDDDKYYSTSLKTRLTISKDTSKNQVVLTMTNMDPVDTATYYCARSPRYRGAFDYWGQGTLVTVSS VL: DIVLTQPPSVSGAPGQRVTISCSGSESNIGSNYVSWYQQLPGTAPKLLIYDNNQRPSGVPDRFSGSKSGTSASLAITGLQSEDEADYYCQSYDYDHYVFGGGTKLTVLG"
  pKd: 8.50
- binder: "MS-GPC-8-6-45 Fab (Fab, V domains shown, Fab: VH-CH1 with FLAG tag and STREP tag II, VL-CL; VH residue 1 is Q in Fab) VH: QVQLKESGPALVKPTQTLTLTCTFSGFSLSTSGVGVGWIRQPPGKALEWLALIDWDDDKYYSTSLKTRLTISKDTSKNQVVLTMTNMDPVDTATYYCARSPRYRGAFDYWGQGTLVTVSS VL: DIVLTQPPSVSGAPGQRVTISCSGSEPNIGSNYVFWYQQLPGTAPKLLIYDNNQRPSGVPDRFSGSKSGTSASLAITGLQSEDEADYYCQSYDYDHYVFGGGTKLTVLG"
  pKd: 8.06
